- assayed_system: BRD3-BD1 (Homo sapiens (Human))
- Sequence (Q15059 34-140): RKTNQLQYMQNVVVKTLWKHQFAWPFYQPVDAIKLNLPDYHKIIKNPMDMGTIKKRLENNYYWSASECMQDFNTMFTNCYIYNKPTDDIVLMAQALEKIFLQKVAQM
- procedure_details: competitive TR-FRET assay, BET-BD with acetylated peptide ligand
- Type: binding
- condition_description: BRD3-BD1; Table 11 additional modifications; read-out: 3.1 EC50
pEC50: −log10 of the molar value.
readout: pEC50

Worked set:
- compound: "CCCCOc1cccc(-c2ccc3c(c2)[C@H](Nc2ccc(C(=O)OC)cc2)C[C@H](C)N3C(C)=O)c1 [compound 164]"
  readout: "pEC50"
  value: 4.52
- compound: "CC(=O)N1c2ccc(-c3cccc(NCC4CCOC4)c3)cc2[C@H](NC(=O)OC(C)C)C[C@@H]1C (stereo partly drawn) [compound 105]"
  readout: "pEC50"
  value: 7.00
- compound: "COc1cccc(-c2ccc3c(c2)[C@H](Nc2ccc(Cl)cc2)C[C@H](C)N3C(C)=O)c1 [compound 147]"
  readout: "pEC50"
  value: 5.03

P = CC(=O)Nc1cccc(-c2ccc3c(c2)[C@H](Nc2ccc(C(=O)O)cc2)C[C@H](C)N3C(C)=O)c1 [compound 120]
Q = COc1ccccc1-c1ccc2c(c1)[C@H](NC(=O)OC(C)C)C[C@H](C)N2C(C)=O [compound 60]
R = CC(=O)Nc1ccc(-c2ccc3c(c2)[C@H](Nc2ccc(Cl)cc2)C[C@H](C)N3C(C)=O)cc1 [compound 48]
S = CC(=O)N1c2ccc(-c3cccc(NCc4ccc(C)cc4)c3)cc2[C@H](NC(=O)OC(C)C)C[C@@H]1C [compound 103]
Qu. Ordering criterion: pEC50; begin with the maximum. In plain terms: list the labels in the order you were asked to.
Ans. S, R, P, Q
(S: 6.05, R: 5.72, P: 5.31, Q: 4.96)

A = CC(=O)N1c2ccc(-c3cccc(NC(=O)c4ccc(C)cc4)c3)cc2[C@H](NC(=O)OC(C)C)C[C@@H]1C [compound 95]
B = CC(=O)N1c2ccc(-c3cccc(NCCC(F)(F)F)c3)cc2[C@H](Nc2ccccc2OC(F)(F)F)C[C@@H]1C [compound 153]
Qu. Of A and B , which one carries the higher reported pEC50? Returns: label corresponding to the selected item.
Ans. A

1 = CC(=O)N(C)c1cccc(-c2ccc3c(c2)[C@H](Nc2ccc(Cl)cc2)C[C@H](C)N3C(C)=O)c1 [compound 149]
2 = CC(=O)N1c2ccc(-c3cccc(NC(=O)C4CC4)c3)cc2[C@H](NC(=O)OC(C)C)C[C@@H]1C [compound 94]
3 = CC(=O)Nc1cccc(-c2ccc3c(c2)[C@H](NCc2ccccc2)C[C@H](C)N3C(C)=O)c1 [compound 63]
Qu. Ordering criterion: pEC50; begin with the maximum. In plain terms: list the labels in the order you were asked to.
Ans. 2, 1, 3
